- System: P388 leukemia ip, CD2F1 mice, survival T/C
- assay.protocol: NCI In Vivo Anticancer Drug Screen. Data for tumor model P388 Leukemia (intraperitoneal) in CD2F1 (CDF1) mice
- condition.parameters: endpoint: median survival time; dose: 30.0 mg/kg/injection; schedule: Q01DX005 (ip); vehicle: Klucel (hydroxypropylcellulose) (HPC); higher = longer survival
Toxic doses and inconclusive results are not listed.
property.name: T/C

// sample C1COCCOCCOCCOCCO1.[Br][Sn]([Br])([Br])[Br] , its T/C was 105 % of control

* * *

- Tested on: P388 leukemia ip, CD2F1 mice, survival T/C
- assay.protocol: NCI In Vivo Anticancer Drug Screen. Data for tumor model P388 Leukemia (intraperitoneal) in CD2F1 (CDF1) mice
- condition.parameters: endpoint: median survival time; dose: 100.0 mg/kg/injection; schedule: Q01DX009 (ip); vehicle: water; higher = longer survival
Inconclusive results and toxic doses are left out.
property.name: T/C

>>> result("CC1(C)C(C#N)C(=O)NC(=O)C1C#N (stereo not drawn)")
"104 % of control"
>>> result("COc1ccc(CCNCCc2ccc(OC)c(OC)c2)cc1OC")
"90 % of control"
>>> result("CCSC(C(O)C(O)C(O)C(O)CO)n1cnc2c(SC)ncnc21 (stereo not drawn)")
"94 % of control"
>>> result("COc1cc2cc[n+](C)cc2cc1OC")
"123 % of control"
>>> result("CC(=O)CC(C)(C)C1CCCCC1")
"107 % of control"
>>> result("CC(=O)C(=O)C1=C2CCCN2CCc2cc3c(cc21)OCO3")
"99 % of control"
>>> result("NCCCn1ccc2c3ccccc3nc-2c1")
"105 % of control"

Now for a further molecule.
The molecule listed as O=C(O)C(Cc1ccc(O)cc1)NSc1ccccc1[N+](=O)[O-] (stereo not drawn) shows T/C equal to 104 % of control

* * *

- Tested on: P388 leukemia ip, CD2F1 mice, survival T/C
- assay.protocol: NCI In Vivo Anticancer Drug Screen. Data for tumor model P388 Leukemia (intraperitoneal) in CD2F1 (CDF1) mice
- condition.parameters: endpoint: median survival time; dose: 400.0 mg/kg/injection; schedule: Q01DX001 (ip); vehicle: saline with Tween-80; higher = longer survival
Toxic doses and inconclusive results are not listed.
Below: a set of entries, each annotated with reported T/C.

Below, each entry is followed by its recorded T/C result.
>>> result("CNc1nnnc2c1sc1ccccc12")
"104 % of control"
>>> result("CCOC(=O)c1c[nH][nH]c1=O")
"94 % of control"
>>> result("CN([NH-])C(=S)[S-].CN([NH-])C(=S)[S-].[Ni]")
"123 % of control"

Entry CC(O)c1nc2ncc(Br)cc2[nH]1 (configuration not stated) ; T/C = 101 % of control

Looking up CC1=C(O)c2[nH]c(Cl)c(C=O)c2C(=O)C1=O , I see its T/C listed as 98 % of control

For reference, reported T/C for CCOC(=O)/C(=C\c1c(OC(C)=O)cn2c(C)cccc12)C(C)=O stands at 94 % of control

* * *

- System: P388 leukemia ip, CD2F1 mice, survival T/C
- assay.protocol: NCI In Vivo Anticancer Drug Screen. Data for tumor model P388 Leukemia (intraperitoneal) in CD2F1 (CDF1) mice
- condition.parameters: endpoint: median survival time; dose: 200.0 mg/kg/injection; schedule: Q04DX002 (ip); vehicle: saline with Tween-80; higher = longer survival
Inconclusive results and toxic doses are left out.
Listing of recorded T/C by entry.

>>> result("COC(=O)c1c(-c2ccc(OC)c(OC)c2)c(C=O)n(C)c1C")
"91 % of control"
>>> result("CC(=O)c1ccc(Nc2cc(C)nc(N)n2)cc1")
"96 % of control"
>>> result("O=[N+]([O-])c1cc2[nH]cnc2c([N+](=O)[O-])c1NCc1ccccc1")
"97 % of control"

Sample CN=C(N)NN=C(c1ccc(C)cc1)c1ccc(C)cc1 ; T/C observed: 100 % of control

T/C reading for CCOC(=O)c1sc(SSc2sc(C(=O)OCC)c(-c3ccccc3)c2[N+](=O)[O-])c([N+](=O)[O-])c1-c1ccccc1 : 107 % of control

Looking up COC(=O)C12CC(CCC1C13CC=CC(C)(C)C1C(=O)OC3)C(C)C2=O (centres undefined) , I see its T/C listed as 95 % of control

Value of T/C reported for the compound CN=C(N)N/N=C(\c1ccccc1)c1ccc(Cl)c([N+](=O)[O-])c1 is 98 % of control

T/C reading for NC1=NC(=O)C(N=O)C(=O)N1 (centres undefined) : 107 % of control

The value of T/C measured for the compound O=C(Oc1ccccc1)C1CC2(C1)CC(C(=O)Oc1ccccc1)C2 (centres undefined) turned out to be 99 % of control

Data origin, for the record: PubChem BioAssay AID330
